- test-description: gradient 5% acetonitrile 3 min, to 50% in 2 min, to 85% in 15 min, held 3 min, 100 µL/min
- test-conditions: column: Zorbax Extend-C18 2.1 x 50 mm; eluents: water / acetonitrile, 0.1% formic acid
Assign RP-LC retention time to each entry below.
Form entry: value (s) — number only.

Give recorded RP-LC retention time. Cc1cccc(N2CCN(c3cc(C(=O)O)c4cc(NC(=O)C5CCCC5)ccc4n3)CC2)c1C
799

Give recorded RP-LC retention time. O=C(CCc1c(-c2ccc(F)cc2)nc2ccccn12)NCc1ccccc1Cl
779

Give recorded RP-LC retention time. CCN1CCCn2cc(S(=O)(=O)NCCCc3ccccc3)cc2C1=O
785

Give recorded RP-LC retention time. CC(C)c1nnc(-c2ccc(S(=O)(=O)N3CCCC3)o2)o1
815

Give recorded RP-LC retention time. Cc1ccc(Cl)cc1NC(=O)CSc1nc2ncccc2c(=O)n1CC1CCCO1 (configuration not stated)
794

Give recorded RP-LC retention time. O=C(Nc1cnc(N2CCOCC2)nc1)c1ccc(F)c(Cl)c1
820

Give recorded RP-LC retention time. COCCn1c(Cc2cccn2C)nnc1SCC(=O)N1CCCc2ccccc21
809

====

- test-description: gradient 5% acetonitrile 3 min, to 50% in 2 min, to 85% in 15 min, held 3 min, 100 µL/min
- test-conditions: column: Zorbax Extend-C18 2.1 x 50 mm; eluents: water / acetonitrile, 0.1% formic acid
assay-metric: RP-LC retention time (s)
Form entry: value (s) — number only.

Give recorded RP-LC retention time. Cc1cccc(NC(=O)C2CCN(S(=O)(=O)c3cn(C(C)C)cn3)CC2)c1
781

Give recorded RP-LC retention time. COCCCn1cnc2c(-c3ccccc3)cn(CC(=O)NCc3ccco3)c2c1=O
802

Give recorded RP-LC retention time. CCN1C(=O)c2cccnc2Sc2cc(NC(=O)c3ccc(OC)cc3)ccc21
806

Give recorded RP-LC retention time. COc1ccc(OC)c(NC(=O)C2CC(=O)N(CCc3c[nH]c4ccc(F)cc34)C2)c1 (stereo unspecified)
794

Give recorded RP-LC retention time. Cc1nc(-c2ccccc2)nn1C1CCN(S(=O)(=O)c2cccs2)C1 (stereo unspecified)
816

Give recorded RP-LC retention time. Cn1c(=O)sc2cc(S(=O)(=O)N3CCC(C(=O)NCCc4cccs4)CC3)ccc21
813

====

- test-description: gradient 5% acetonitrile 3 min, to 50% in 2 min, to 85% in 15 min, held 3 min, 100 µL/min
- test-conditions: column: Zorbax Extend-C18 2.1 x 50 mm; eluents: water / acetonitrile, 0.1% formic acid
assay-metric: RP-LC retention time (s)
Form entry: value (s) — number only.

Give recorded RP-LC retention time. COc1ccc(CCS(=O)(=O)Nc2ccc(CC(=O)NCc3cccs3)cc2)cc1
782

Give recorded RP-LC retention time. COc1ccc(C2CC(=O)N(c3ccc(F)cc3)C(=O)C2)cc1OC
801

Give recorded RP-LC retention time. COc1ccc(Br)cc1CNC(=O)Cn1cnc2nc3c(cc2c1=O)CCCC3
777

====

Assign RP-LC retention time to each entry below.
- test-description: gradient 5% acetonitrile 3 min, to 50% in 2 min, to 85% in 15 min, held 3 min, 100 µL/min
- test-conditions: column: Zorbax Extend-C18 2.1 x 50 mm; eluents: water / acetonitrile, 0.1% formic acid

Give recorded RP-LC retention time. CCOC(=O)C1CCN(C(=O)c2nc(-c3ccnc(N4CCCC4)c3)no2)CC1
673 s

Give recorded RP-LC retention time. NC(=O)COc1cc(-c2cccc(Cl)c2)nc2ccc(NC(=O)C3CC3)cc12
667 s

Give recorded RP-LC retention time. O=S(=O)(c1cccnc1)N1CC(c2nc(CCOCC3CCOCC3)no2)C1
710 s

Give recorded RP-LC retention time. O=C(CCC1CCCC1)N1CCc2c([nH]c3ccccc23)C1c1ccc(F)cc1 (stereo not drawn)
1410 s

Give recorded RP-LC retention time. Cc1cccc(Oc2cc(N3CCC(C(=O)Nc4cccc(C(C)C)c4)CC3)ncn2)c1C
1200 s

Give recorded RP-LC retention time. CC(C)n1c(=O)c(NCc2ccccc2Cl)nc2ccncc21
596 s

Give recorded RP-LC retention time. Cc1cnc(C(=O)N2CCC(N3C(=O)C(OCC4CC4)C34CCOCC4)CC2)cn1 (stereo not drawn)
618 s

Give recorded RP-LC retention time. COc1ccc2c(c1)C1(CCN(C(=O)Cc3cccc(F)c3)C1)C(=O)N2C (stereo not drawn)
788 s

Give recorded RP-LC retention time. Cc1cc(OCC(=O)N2CCN(c3ccccn3)CC2)nc2c1c(C)nn2-c1ccccc1
693 s

Give recorded RP-LC retention time. Cc1cc(=O)n(CC(=O)NCc2cccs2)c(N(C)Cc2ccccc2)n1
698 s

Give recorded RP-LC retention time. Cc1ccc(CNC(=O)C2(C)CCCN(C(=O)NCc3ccccc3)C2)cc1 (stereo not drawn)
878 s

Give recorded RP-LC retention time. CCOC(=O)CSCC(=O)Nc1nnc(-c2cccc([N+](=O)[O-])c2)s1
764 s

Give recorded RP-LC retention time. CCCNC(=O)C1CCCN(c2ccc(=O)n(-c3cccc(F)c3)n2)C1 (stereo not drawn)
699 s
